Origin of values: patent US20120045438A1

% Ra2 Binding Inhibition values for the binders below.
target: T1, human IL-13 R130Q variant (R110Q of the mature chain) (human, UniProt P35225 35-146, Biotinylated on amines (NHS-LC-biotin, 4:1) in ELISA, panning and competition assays. The letters are unchanged.); assay: Ra2 binding inhibition ELISA, mAb in crude HEK293 supernatant, IL-13 binding to IL-13Ra2
T1 construct: R130Q counts from Met 1 of the signal peptide, R110Q on the mature chain; Bought from Peprotech; also called IL-13 R110Q; b-R130Q
T1 sequence (P35225 35-146 limits assumed, stated change not applied): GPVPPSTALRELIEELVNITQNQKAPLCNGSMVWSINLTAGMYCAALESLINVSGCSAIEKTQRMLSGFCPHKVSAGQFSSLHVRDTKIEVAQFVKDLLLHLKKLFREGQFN
Numeric answer only, unit % assumed.

INSERT INTO results (binder, readout_number) VALUES
  ('mAb with Lc 2A12 (Lc6 variant) and Hc2 (antibody, V domains shown, human IgG1) VH: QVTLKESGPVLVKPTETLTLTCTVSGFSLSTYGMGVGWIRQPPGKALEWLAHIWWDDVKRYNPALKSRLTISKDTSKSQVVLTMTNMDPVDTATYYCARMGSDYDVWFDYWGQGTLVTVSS VL: EIVLTQSPATLSLSPGERATLSCRASKSISKYLAWYQQKPGQAPRLLIYSGSTLQSGIPARFSGSGSGTDFTLTISSLEPEDFAVYYCQQHDPGPYTFGQGTKLEIK', 78.5),
  ('mAb with Lc 1H02 (Lc6 variant) and Hc2 (antibody, V domains shown, human IgG1) VH: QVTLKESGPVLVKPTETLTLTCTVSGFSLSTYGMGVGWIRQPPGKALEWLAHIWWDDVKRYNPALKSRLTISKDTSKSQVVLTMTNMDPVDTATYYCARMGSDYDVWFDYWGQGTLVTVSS VL: EIVLTQSPATLSLSPGERATLSCRASKSISKYLAWYQQKPGQAPRLLIYSGSTLQSGIPARFSGSGSGTDFTLTISSLEPEDFAVYYCQQQDIGPYTFGQGTKLEIK', 81.7),
  ('mAb with Lc 3E03 (Lc6 variant) and Hc2 (antibody, V domains shown, human IgG1) VH: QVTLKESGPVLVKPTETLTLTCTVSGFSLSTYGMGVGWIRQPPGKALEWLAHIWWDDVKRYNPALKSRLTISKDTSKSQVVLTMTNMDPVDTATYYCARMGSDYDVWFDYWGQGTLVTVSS VL: EIVLTQSPATLSLSPGERATLSCRASKSISKYLAWYQQKPGQAPRLLIYSGSTLQSGIPARFSGSGSGTDFTLTISSLEPEDFAVYYCQQHNHGPYTFGQGTKLEIK', 70.9),
  ('mAb with Lc 1F03 (Lc6 variant, Table 8) and Hc2 (antibody, V domains shown, human IgG1) VH: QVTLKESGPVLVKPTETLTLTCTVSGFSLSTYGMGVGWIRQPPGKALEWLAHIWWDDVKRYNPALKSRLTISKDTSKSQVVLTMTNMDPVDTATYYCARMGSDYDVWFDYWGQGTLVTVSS VL: EIVLTQSPATLSLSPGERATLSCRASKSISKYLAWYQQKPGQAPRLLIYSGSTLQSGIPARFSGSGSGTDFTLTISSLEPEDFAVYYCQQHDRDPYTFGQGTKLEIK', 57.6);

// moving on: another record for % Ra2 Binding Inhibition
Prompt line: Consider the binder shown here: mAb with Lc 2E04 (Lc6 variant) and Hc2 (antibody, V domains shown, human IgG1) VH: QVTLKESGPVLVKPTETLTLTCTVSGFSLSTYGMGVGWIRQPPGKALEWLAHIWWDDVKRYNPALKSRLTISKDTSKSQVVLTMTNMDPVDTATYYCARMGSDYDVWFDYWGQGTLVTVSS VL: EIVLTQSPATLSLSPGERATLSCRASKSISKYLAWYQQKPGQAPRLLIYSGSTLQSGIPARFSGSGSGTDFTLTISSLEPEDFAVYYCQQPLEAPYTFGQGTKLEIK What is its recorded % Ra2 Binding Inhibition?
Response line: 56.6
